Source listed as patent US8946273B2.

Target: mutant HIV reverse transcriptases (Human immunodeficiency virus type 1, UniProt P12497, Y775L, cells depend on it)
quantity.name: EC50

Example compounds with recorded EC50:
Input line: Report EC50 for CCc1ccc(-n2c(Br)nnc2SCC(=O)Nc2ccc(C(=O)N[C@H](C(=O)OC)C(C)C)cc2Cl)c2ccccc12
Output line: < 50 nM

Input line: Report EC50 for CCc1ccc(-n2c(Br)nnc2SCC(=O)Nc2ccc(S(N)(=O)=O)cc2Cl)c2ccccc12
Output line: < 50 nM

Input line: Report EC50 for O=C(CSc1nnc(Br)n1-c1ccc(C2CC2)cc1Cl)Nc1ccc(C(=O)O)cc1Cl
Output line: > 100 nM

Next:
Input line: Report EC50 for COc1ccc2c(C3CC3)ccc(-n3c(Br)nnc3SCC(=O)Nc3ccc(C(=O)O)cc3Cl)c2c1
Output line: < 50 nM
